Compound	melting point
C1CC[C@@H]2N[C@H](c3nnn[nH]3)C[C@@H]2C1	240 °C (dec.)
CCC1CC[C@@H]2C[C@@H](C(=O)O)N[C@@H]2C1.Cl (stereo partly drawn)	188 to 190 °C
CN(C)CCOC(=O)[C@@H]1C[C@@H]2CCCC[C@@H]2N1.Cl	189 to 195 °C
O=C(NS(=O)(=O)C(F)(F)F)[C@@H]1C[C@@H]2CCCC[C@@H]2N1	247 to 249 °C
O=C(O)[C@@H]1C[C@H]2CCC(c3ccccc3)C[C@H]2N1 (stereo partly drawn)	200 to 205 °C
CN1[C@H](C(=O)NS(=O)(=O)C(F)(F)F)C[C@@H]2CCCC[C@@H]21	189 to 192 °C

---

assay: Drug plasma half-life assay (DPH-LA) and bioavailability in rat; assay type: in vivo; conditions: male, Wistar, in vivo; rat, PO, 30 mg/kg; read-out: Mean Bioavailability

Smiles	Units	bioavailability
CN1[C@H](C(=O)O)C[C@@H]2CCCC[C@@H]21.Cl	%	63

---

target: pig alpha-2-delta receptor 1 (A2DR1) (Sus scrofa, UniProt A0A287BIN3); assay: [3H]Gabapentin scintillant proximity A2DR1 binding assay (A2DR1 SPA, Biological Method 5); conditions: displacement of [3H]-gabapentin
Sequence (A0A287BIN3 1-1109): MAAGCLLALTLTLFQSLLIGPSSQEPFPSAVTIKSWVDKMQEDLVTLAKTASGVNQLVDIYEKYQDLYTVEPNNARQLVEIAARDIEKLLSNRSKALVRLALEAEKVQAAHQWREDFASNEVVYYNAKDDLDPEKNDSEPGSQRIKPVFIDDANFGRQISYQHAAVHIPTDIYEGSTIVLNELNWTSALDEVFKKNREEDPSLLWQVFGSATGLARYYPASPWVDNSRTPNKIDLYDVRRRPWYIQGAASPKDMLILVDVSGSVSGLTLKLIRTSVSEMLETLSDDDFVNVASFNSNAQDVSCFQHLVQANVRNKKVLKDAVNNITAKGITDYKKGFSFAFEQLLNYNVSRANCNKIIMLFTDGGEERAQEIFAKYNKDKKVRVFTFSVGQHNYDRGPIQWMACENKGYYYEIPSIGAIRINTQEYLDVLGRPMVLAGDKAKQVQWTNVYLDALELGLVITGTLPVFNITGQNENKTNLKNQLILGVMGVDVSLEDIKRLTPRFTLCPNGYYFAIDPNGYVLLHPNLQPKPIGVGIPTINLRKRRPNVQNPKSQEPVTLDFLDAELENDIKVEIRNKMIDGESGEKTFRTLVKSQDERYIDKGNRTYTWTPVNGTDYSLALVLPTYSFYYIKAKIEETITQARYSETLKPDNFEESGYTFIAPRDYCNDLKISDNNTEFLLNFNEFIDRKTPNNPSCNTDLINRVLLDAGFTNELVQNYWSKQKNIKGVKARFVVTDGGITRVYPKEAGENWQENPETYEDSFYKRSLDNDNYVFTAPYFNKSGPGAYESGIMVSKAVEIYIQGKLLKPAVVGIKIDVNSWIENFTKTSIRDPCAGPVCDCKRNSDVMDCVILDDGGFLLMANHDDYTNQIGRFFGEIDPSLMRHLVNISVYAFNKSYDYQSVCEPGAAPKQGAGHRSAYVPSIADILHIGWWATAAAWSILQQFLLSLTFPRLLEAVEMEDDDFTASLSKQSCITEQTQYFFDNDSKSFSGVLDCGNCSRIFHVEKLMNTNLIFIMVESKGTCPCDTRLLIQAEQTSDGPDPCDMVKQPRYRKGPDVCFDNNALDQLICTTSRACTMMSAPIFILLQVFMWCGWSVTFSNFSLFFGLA
pIC50: −log10 of the molar value.

Compound	Experimental Target	Bound Operator	pIC50
O=C(O)[C@]12C[C@H]1[C@@H]1CCCC[C@@H]1N2	pig alpha-2-delta receptor 1 (A2DR1) (Sus scrofa, UniProt A0A287BIN3)	=	5.59
O=C(O)[C@@H]1C[C@@H]2CCCC[C@@H]2N1 [OHI2CA, reference compound]	pig alpha-2-delta receptor 1 (A2DR1) (Sus scrofa, UniProt A0A287BIN3)	=	6.96
CN1C(C(=O)O)C[C@@H]2CCCC[C@@H]21 (mixture of isomers)	pig alpha-2-delta receptor 1 (A2DR1) (Sus scrofa, UniProt A0A287BIN3)	≤	5.00
O=C(O)C1CC2C(CCCC2C(F)(F)F)N1 (centres unmarked)	pig alpha-2-delta receptor 1 (A2DR1) (Sus scrofa, UniProt A0A287BIN3)	≤	5.00
CCN1[C@H](C(=O)O)C[C@@H]2CCCC[C@@H]21	pig alpha-2-delta receptor 1 (A2DR1) (Sus scrofa, UniProt A0A287BIN3)	≤	5.00

---

experiment: Drug plasma half-life assay (DPH-LA) and bioavailability in rat; assay type: in vivo; details: male, Wistar, in vivo, po; administered orally, rat (footnote of Table 2); read-out: bioavailability
Experimental Endpoint: bioavailability (%)

Compound	Experimental Endpoint	Units	Assay Value
CN1[C@H](C(=O)O)C[C@@H]2CCCC[C@@H]21.Cl [A1]	bioavailability	%	63

---

Experiment: Drug plasma half-life assay (DPH-LA) and bioavailability in rat
Assay type: in vivo
Details: male, Wistar, plasma; rat, PO, 5 mg/kg; read-out: Mean Bioavailability
Description: Three fasted male Sprague-Dawley rats are dosed by intravenous infusion via cannula over 5 minutes of 3 mg/kg of invention compound in 1.0 mL saline solution, and the cannulas were each rinsed with 1.0 mL saline solution immediately following infusion. Animals are fed at 4 hours post dose. […] Plasma is separated from the blood and stored frozen until analyzed by conventional high performance liquid chromatography, whereby 5.0 ng/mL was the lower limit of quantitation. […]

Compound	bioavailability [%]
O=C(O)[C@@H]1C[C@@H]2CCCC[C@@H]2N1 [OHI2CA, reference compound]	72

Ref: patent US20050143427A1
